Origin of values: patent US20180318275A1

pIC50 values for the compounds below.
# System: LS-180
# Method Summary: Cell proliferation (cell count by microscopy), Example 3
# Type: cell-based
# Applied Conditions: Homo sapiens, LS180; LS-160 (so in the source), single agent, 72 h, cell count relative to DMSO
pIC50: −log10 of the molar value.

[
  {
    "Compound": "COc1cc2c(cc1OC(C)C)[C@H](c1ccc(Cl)cc1)N(c1ccc(N(C)C[C@H]3CC[C@H](N4CCN(C)C(=O)C4)CC3)cc1)C(=O)C2",
    "pIC50": 6.15
  },
  {
    "Compound": "Cc1nc(NC(=O)N2CCC[C@H]2C(N)=O)sc1-c1ccnc(C(C)(C)C(F)(F)F)c1",
    "pIC50": "< 5.00"
  },
  {
    "Compound": "CC1(C)CCC(c2ccc(Cl)cc2)=C(CN2CCN(c3ccc(C(=O)NS(=O)(=O)c4ccc(N[C@H](CCN5CCOCC5)CSc5ccccc5)c(S(=O)(=O)C(F)(F)F)c4)cc3)CC2)C1 [COMPOUND C, reference compound]",
    "pIC50": "< 5.00"
  }
]

* * *

IC50 values for the molecules below.
# Test system: RKO
# Method Summary: Cell proliferation (cell count by microscopy), Example 3
# Format: cell-based
# Applied Conditions: Homo sapiens, single agent, 72 h, cell count relative to DMSO

[
  {
    "Molecule": "COc1cc2c(cc1OC(C)C)[C@H](c1ccc(Cl)cc1)N(c1ccc(N(C)C[C@H]3CC[C@H](N4CCN(C)C(=O)C4)CC3)cc1)C(=O)C2",
    "Bound Sign": "=",
    "IC50 / µM": 1.2
  },
  {
    "Molecule": "CC1(C)CCC(c2ccc(Cl)cc2)=C(CN2CCN(c3ccc(C(=O)NS(=O)(=O)c4ccc(N[C@H](CCN5CCOCC5)CSc5ccccc5)c(S(=O)(=O)C(F)(F)F)c4)cc3)CC2)C1 [COMPOUND C, reference compound]",
    "Bound Sign": ">",
    "IC50 / µM": 10
  },
  {
    "Molecule": "Cc1nc(NC(=O)N2CCC[C@H]2C(N)=O)sc1-c1ccnc(C(C)(C)C(F)(F)F)c1",
    "Bound Sign": "=",
    "IC50 / µM": 3.9
  }
]
